Just for reference, patent US8471005B2 is where these values come from.

# Assayed target: ALK (Homo sapiens)
# Construct: host or cells: baculovirus expression system
# Sequence (Q9UM73 19-1620): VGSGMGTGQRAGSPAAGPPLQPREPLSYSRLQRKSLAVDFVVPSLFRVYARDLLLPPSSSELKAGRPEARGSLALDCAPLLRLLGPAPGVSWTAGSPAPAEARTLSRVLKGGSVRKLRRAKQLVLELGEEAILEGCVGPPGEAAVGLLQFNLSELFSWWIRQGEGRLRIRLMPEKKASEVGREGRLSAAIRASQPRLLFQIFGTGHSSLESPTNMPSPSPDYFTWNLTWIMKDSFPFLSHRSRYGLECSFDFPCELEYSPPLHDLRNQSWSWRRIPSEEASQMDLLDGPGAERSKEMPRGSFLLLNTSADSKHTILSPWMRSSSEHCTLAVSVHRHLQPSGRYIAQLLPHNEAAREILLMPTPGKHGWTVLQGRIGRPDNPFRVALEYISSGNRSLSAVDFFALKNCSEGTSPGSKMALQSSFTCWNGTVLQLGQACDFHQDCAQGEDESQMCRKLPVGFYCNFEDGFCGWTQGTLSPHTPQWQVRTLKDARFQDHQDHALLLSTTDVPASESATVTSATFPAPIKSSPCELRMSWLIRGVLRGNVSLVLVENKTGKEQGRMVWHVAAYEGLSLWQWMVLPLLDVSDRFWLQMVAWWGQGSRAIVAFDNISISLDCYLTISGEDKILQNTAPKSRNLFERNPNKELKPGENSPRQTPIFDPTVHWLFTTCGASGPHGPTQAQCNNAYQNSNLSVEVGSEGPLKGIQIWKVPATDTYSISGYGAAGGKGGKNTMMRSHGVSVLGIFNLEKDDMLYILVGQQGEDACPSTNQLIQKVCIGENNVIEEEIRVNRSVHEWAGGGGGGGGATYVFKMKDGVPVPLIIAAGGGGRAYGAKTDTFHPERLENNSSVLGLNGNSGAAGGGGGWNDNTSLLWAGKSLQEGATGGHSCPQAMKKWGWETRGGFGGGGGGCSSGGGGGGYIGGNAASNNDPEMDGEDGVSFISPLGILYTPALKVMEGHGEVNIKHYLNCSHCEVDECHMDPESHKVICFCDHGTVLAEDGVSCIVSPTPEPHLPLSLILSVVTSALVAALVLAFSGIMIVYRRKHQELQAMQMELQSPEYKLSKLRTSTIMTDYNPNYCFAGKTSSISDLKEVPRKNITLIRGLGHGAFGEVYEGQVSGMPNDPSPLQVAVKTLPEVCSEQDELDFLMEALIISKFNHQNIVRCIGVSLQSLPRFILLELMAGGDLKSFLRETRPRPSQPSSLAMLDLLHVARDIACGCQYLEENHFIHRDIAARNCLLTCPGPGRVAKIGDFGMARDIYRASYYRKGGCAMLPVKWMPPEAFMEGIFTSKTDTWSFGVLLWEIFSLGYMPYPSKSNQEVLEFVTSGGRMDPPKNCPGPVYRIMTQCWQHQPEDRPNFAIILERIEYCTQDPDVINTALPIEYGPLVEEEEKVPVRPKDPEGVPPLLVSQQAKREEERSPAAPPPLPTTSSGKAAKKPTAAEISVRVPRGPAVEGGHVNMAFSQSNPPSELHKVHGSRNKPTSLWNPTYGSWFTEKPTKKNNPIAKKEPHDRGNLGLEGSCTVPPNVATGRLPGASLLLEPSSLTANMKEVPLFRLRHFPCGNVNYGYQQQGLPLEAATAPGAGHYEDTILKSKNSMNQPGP
# Assay explanation: ALK Kinase Assay (ELISA/TRF, PLC-γ substrate)
# Format: biochemical
# Experimental setup: ALK kinase inhibition, 1 μM ATP; read-out: ALK Potency
Readout kind: IC50

COc1ccc(-c2ccc3cnc(Nc4ccc(C5CCN(CC(N)=O)CC5)cc4OC)nn23)c(OC)c1; < 100 nM
CS(=O)(=O)Nc1cccc(-c2ccc3cnc(Nc4cnn(CCN5CCOCC5)c4)nn23)c1; 1000 to 10000 nM
COc1ccccc1-c1ccn2nc(Nc3ccc4c(c3)CN(C)CC4)ncc12; > 10000 nM
COc1cc(N2CCN(C[C@H](C)O)CC2)ccc1Nc1ncc2ccc(-c3cccc4c3OCCO4)n2n1; < 100 nM
CC(C)(C)NS(=O)(=O)c1cccc(-c2ccc3cnc(Nc4ccc5nc(C(F)(F)F)[nH]c5c4)nn23)c1; > 10000 nM

Problem: What value of IC50 on ALK (Homo sapiens) does CC(C)(C)NS(=O)(=O)c1cccc(-c2ccc3cnc(Nc4cccc(N)c4)nn23)c1 have?
Solution: 100 to 1000 nM

Problem: What value of IC50 on ALK (Homo sapiens) does CC(=O)Nc1cccc(Nc2ncc3ccc(-c4cccc(NS(C)(=O)=O)c4)n3n2)c1 have?
Solution: 1000 to 10000 nM

Problem: What value of IC50 on ALK (Homo sapiens) does Cc1nc(-c2ccc3cnc(Nc4ccc(N5CCN(C)CC5)cc4)nn23)cn1C have?
Solution: 100 to 1000 nM

Problem: What value of IC50 on ALK (Homo sapiens) does COc1cc(C2CCN(CCO)CC2)ccc1Nc1ncc2ccc(-c3cccc(S(=O)(=O)NC4CC4)c3)n2n1 have?
Solution: < 100 nM

Problem: What value of IC50 on ALK (Homo sapiens) does COc1cc2c(cc1Nc1ncc3ccc(-c4ccccc4OC)n3n1)CCC1(CCN(C)CC1)O2 have?
Solution: < 100 nM

Problem: What value of IC50 on ALK (Homo sapiens) does CS(=O)(=O)c1cccc(-c2ccc3cnc(Nc4ccc5c(c4)CCC(N4CCOCC4)CC5)nn23)c1 (stereo not drawn) have?
Solution: 100 to 1000 nM

Problem: What value of IC50 on ALK (Homo sapiens) does CN1C(=O)COc2cc(Nc3ncc4ccc(-c5ccccc5N(C)S(C)(=O)=O)n4n3)ccc21 have?
Solution: 100 to 1000 nM

Problem: What value of IC50 on ALK (Homo sapiens) does COc1cc(C2CCNCC2)ccc1Nc1ncc2ccc(-c3cccc(S(=O)(=O)NC(C)(C)C)c3)n2n1 have?
Solution: < 100 nM

Problem: What value of IC50 on ALK (Homo sapiens) does Cc1cc2cnc(Nc3ccc(N4CCN(C)CC4)cc3)nn2c1-c1cccc(CCC#N)c1 have?
Solution: < 100 nM

Problem: What value of IC50 on ALK (Homo sapiens) does CC(C)S(=O)(=O)c1cccc(-c2ccc3cnc(Nc4ccc(Cl)c(OC[C@@H]5CCCN5)c4)nn23)c1 have?
Solution: 100 to 1000 nM

Problem: What value of IC50 on ALK (Homo sapiens) does COc1cc(CN2CCN(C(=O)CNC(=O)OC(C)(C)C)CC2)ccc1Nc1ncc2ccc(-c3ccccc3OC)n2n1 have?
Solution: 100 to 1000 nM
